assayed-target: T1, human HGF (R&D Systems, 294-HG/CF) (human, UniProt P14210 32-728)
T1 construct: The entry begins at QRKRR, without signal peptide; Amine-coupled to the chip in SPR and biotinylated in AlphaScreen; also called rec hHGF (R&D systems)
T1 sequence (P14210 32-728 limits assumed): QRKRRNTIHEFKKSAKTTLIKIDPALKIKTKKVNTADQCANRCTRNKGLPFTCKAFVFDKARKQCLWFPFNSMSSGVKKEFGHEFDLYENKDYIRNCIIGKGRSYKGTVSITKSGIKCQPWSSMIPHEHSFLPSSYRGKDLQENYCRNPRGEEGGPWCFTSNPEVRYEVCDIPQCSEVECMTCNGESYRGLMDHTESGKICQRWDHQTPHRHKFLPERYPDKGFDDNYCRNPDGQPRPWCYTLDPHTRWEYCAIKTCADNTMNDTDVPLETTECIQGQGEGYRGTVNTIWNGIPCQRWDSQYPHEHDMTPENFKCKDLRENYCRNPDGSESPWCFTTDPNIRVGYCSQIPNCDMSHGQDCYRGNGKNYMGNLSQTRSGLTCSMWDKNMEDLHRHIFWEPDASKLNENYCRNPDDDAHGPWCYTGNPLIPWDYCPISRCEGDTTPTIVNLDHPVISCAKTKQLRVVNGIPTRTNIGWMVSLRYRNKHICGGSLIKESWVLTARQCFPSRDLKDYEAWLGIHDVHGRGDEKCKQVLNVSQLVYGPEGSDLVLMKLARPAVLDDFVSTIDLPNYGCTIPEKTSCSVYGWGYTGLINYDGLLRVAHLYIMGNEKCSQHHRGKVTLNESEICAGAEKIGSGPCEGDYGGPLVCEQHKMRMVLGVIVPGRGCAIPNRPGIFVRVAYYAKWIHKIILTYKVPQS
method-summary: SPR (Biacore T100), HGF amine-coupled to CM5 chip, periplasmic extract at one dilution
Ranges used to classify koff: low band (below 0.0009 s⁻¹), middle band (0.0009 s⁻¹ to below 0.003 s⁻¹), high band (0.003 s⁻¹ or more)

Which category fits this record: 6E10 (VHH, anti-HGF Nanobody clone; not shown: c-myc and His6 tags) VHH: EVQLVESGGGLVQAGGSLRLSCAASGRTDSSYAMGWFRQAPGKEHEFVAAISWSGGSTYYADSVKGRFTISRDNAKNTLYLQMNSLKPEDTAVYYCGASYRWGITHEYEYWGQGTQVTVSS low band

Would you mind sorting 9H5 (VHH, anti-HGF Nanobody clone; not shown: c-myc and His6 tags) VHH: EVQLVESGGGLVQPGGSLRLSCAASGSIFNLNPMGWYRQAPGKQRELVATVTGEGRTNYSDSVKGRFTISRDNAKNTVYLQMNSLKPEDTAVYYCNAAFWAYDDAYWGQGTQVTVSS into the appropriate category? middle band

Could you place 5E8 (VHH, anti-HGF Nanobody clone, tested as periplasmic extract; not shown: c-myc and His6 tags) VHH: EVQLVESGGGLAQAGGSLRLSCAASGRSLSNYAMGWFRQAPGKEREIVCAISRSGSITTYADSVKGRFTIAKDNAANTVYLQMNSLKPEDTAAYYCAADPMYYGIPDQNWDYWGQGTQVTVSS in its proper category? Many thanks. middle band

For this binder, which bin applies? 6H6 (VHH, anti-HGF Nanobody clone; not shown: c-myc and His6 tags) VHH: EVQLMESGGGLVQAGGSLRLSCAASGRTFSSYAMGWFRQAPGKERENVAAISSSGGYTYYPDSVKGRFTISRDTAKNTVYLQMNSLKPDDTAVYYCAGTQPNFGWQLLLLQTEYDYWGQGTQVTVSS high band

Which category fits this record: 6F6 (VHH, anti-HGF Nanobody clone; not shown: c-myc and His6 tags) VHH: EVQLVESGGGLVQPGGSLRLSCAASGSILGINAMGWYRQAPGKQRELVAVINSGGSTNYADSVKGRFTISRDNAKNTVYLQMNSLKPEDTAVYYCNADEWGDYPGQVYDYWGQGTQVTVSS high band

Class for 7G6 (VHH, anti-HGF Nanobody clone; not shown: c-myc and His6 tags) VHH: EVQLVESGGGLVQAGGSLRLSCAVSGRTFSPYTMGWFRRAPGKEREFVAARTWSGGVAWYADSVKGRFTISSDNAENMVYLQMNSLKPEDTAVYYCAAKSPGRTYSPREERAYARWGQGTQVTVSS ? middle band

Class (by measured koff) for 6B2 (VHH, anti-HGF Nanobody clone; not shown: c-myc and His6 tags) VHH: EVQLVESGGGLVQAGGSLRLSCAASGRTFSSYAMGWFRQAPGKEREFVAAINWSGDSTYYADSVKGRFTISRDNAKNTVYLQMNSLKPEDTAVYYCAAGDVGRPDLYEYDYWGQGTQVTVSS low band

Which koff band matches 5C7 (VHH, anti-HGF Nanobody clone; not shown: c-myc and His6 tags) VHH: EVQLVESGGGLVQAGDSLRLSCAASGGTFGSSHMAWFRQVPEKEREFVAAISRSGGTTYYADSVKGRCTISRDNAKNTVYLQMNSLKPEDTAVYYCAAARFWGSTSTRMDDYQYWGQGTQVTVSS ? middle band

Any idea which band 1E2 (VHH, anti-HGF Nanobody clone; not shown: c-myc and His6 tags) VHH: EVQLVESGGGLVQPGGSLRLSCAASGRTFSSYAMGWFRQAPGKEREFVAGISWSGSSSYYADSVKGRFTISRDNAKNTVYLQMNSLKPEDTAVYYCAADPVGRADLYEYDYWGQGTQVTVSS is in? high band
